- STUDY_TARGET: Endonuclease 8-like 1 (Homo sapiens);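 further: fluorescence at 594 nm from quenched duplex DNA oligonucleotides released by NEIL1 cleavage and strand separation, reported as reduction of this enzyme activity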
- EXPERIMENTAL_SETUP: Compound Concentration 10.0 uM, Hit No
- Description: Inhibition of NEIL1 by quantifying inhibition of NEIL1-mediated cleavage and dissociation of quenched duplex DNA oligonucleotides, measured as fluorescence at 594 nm.
Can you tell me inhibition for the items I'm about to list?

inhibition on Endonuclease 8-like 1 (Homo sapiens) for `N#Cc1cc(F)cc(-c2nc(-c3ccc(F)cn3)no2)c1` is -4.29%

inhibition of `Cc1cccc(S(=O)(=O)N(C)[C@H](C)CCN2CCC(C)CC2)c1` , assay on Endonuclease 8-like 1 (Homo sapiens), is 1.79%

Summary line: `CO[C@H]1CC[C@@H](C(=O)c2ccc3nc4c(cc3c2)CCCO4)CC1` , Endonuclease 8-like 1 (Homo sapiens), reported inhibition = 1.35%

# inhibition measured on Endonuclease 8-like 1 (Homo sapiens) for item `NCCc1c[nH]c2ccc(C(N)=O)cc12` = 7.95%

// molecule `O=C(Nc1ccc(S(=O)(=O)Nc2nccs2)cc1)C(c1ccccc1)c1ccccc1` , assay Endonuclease 8-like 1 (Homo sapiens), inhibition value: -2.51%

Field inhibition (Endonuclease 8-like 1 (Homo sapiens)), entry `CC1(C)SSC(C)(C)[C@@H](NC(=O)[C@@H](N)Cc2ccc(O)cc2)C(=O)NCC(=O)N[C@@H](Cc2ccccc2)C(=O)N[C@H]1C(=O)O` : 8.1%

# value of inhibition, Endonuclease 8-like 1 (Homo sapiens), item COc1ccc2c(c1)C(C(=O)N(Cc1ccc(N(C)C)cc1)c1ccc(C(C)C)cc1)CCC2 (centres undefined) = 4.6%

Item `COC(=O)[C@H](CCCN=C(N)N)NC(=O)CCCc1c(-c2ccccc2)[nH]c2c(F)cc(F)cc12` ; assay system Endonuclease 8-like 1 (Homo sapiens); inhibition reported as 5.58%

Field inhibition (Endonuclease 8-like 1 (Homo sapiens)), entry `C=C1/C(=C\C=C2/CCC[C@]3(C)[C@@H]([C@H](C)/C=C/[C@H](C)C(C)C)CC[C@@H]23)C[C@@H](O)C[C@@H]1O` : -1.8%

---

- STUDY_TARGET: N-glycosylase/DNA lyase (Homo sapiens);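 further: OGG1 cleavage of a quenched duplex DNA oligonucleotide, coupled to APE1 for strand incision, read as fluorescence at 594 nm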
- EXPERIMENTAL_SETUP: Compound Concentration 10.0 uM, Hit No
- Description: Inhibition of OGG1 by quantifying inhibition of OGG1-mediated cleavage and dissociation of quenched duplex DNA oligonucleotides, measured as fluorescence at 594 nm. To generate a functional strand incision and increase turn-over this assay is coupled to APE1.
EXPERIMENTAL_READOUT: inhibition (%)
Give the quantity in %, number only.

inhibition in this record for CCCCCC(O)/C=C/[C@H]1C(=O)CC(O)C1C/C=C\CCCC(=O)O (stereo not given in full) : 8.62

Reported inhibition ( `Cc1ccc2c(c1CCC(=O)O)CC[C@@H](NS(=O)(=O)c1ccc(Cl)cc1)C2` ) = 10

What the record says about `CCCC(=O)C1(c2ccccc2)CCN(C(=O)[C@@H](Cc2ccc(OC)cc2)NC(=O)[C@@H](N)Cc2cncn2C)CC1` : inhibition is -8.78

Reported inhibition for `CCn1c(CNC(=O)c2nc(Cl)cnc2N)[n+](CC)c2ccc(C(=O)N(C)CCN(C)C)cc21` was 14.2

# compound `NCCCNCCCCNCCC(=O)NCCCCCNC(=O)[C@H](CC(N)=O)NC(=O)Cc1ccc(O)cc1O` ; its inhibition = 0.0747

---

- STUDY_TARGET: DNA-3-methyladenine glycosylase (Homo sapiens) (UniProt P29372)
- Sequence (P29372 whole entry): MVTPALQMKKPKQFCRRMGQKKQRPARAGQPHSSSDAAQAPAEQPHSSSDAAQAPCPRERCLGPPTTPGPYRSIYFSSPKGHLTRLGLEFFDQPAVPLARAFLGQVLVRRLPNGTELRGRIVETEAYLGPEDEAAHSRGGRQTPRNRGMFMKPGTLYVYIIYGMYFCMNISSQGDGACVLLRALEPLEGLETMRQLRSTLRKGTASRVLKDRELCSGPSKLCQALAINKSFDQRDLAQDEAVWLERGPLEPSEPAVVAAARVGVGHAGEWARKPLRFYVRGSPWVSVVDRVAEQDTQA
- EXPERIMENTAL_SETUP: Compound Concentration 10.0 uM, Hit No
- Description: Inhibition of MPG by quantifying inhibition of MPG-mediated cleavage and dissociation of quenched duplex DNA oligonucleotides, measured as fluorescence at 594 nm. To generate a functional strand incision and increase turn-over this assay is coupled to APE1.
Where a SMILES comes first, the peptide text is derived from it. [ ]: non-standard residue; d: D form. The star is where a group is joined. dPhe(4-NHCONH2) = NC(=O)Nc1ccc(C[C@@H](N)C(=O)O)cc1; Dihydroorotyl(S) = O=C1C[C@@H](C(=O)*)NC(=O)N1; dPhe(4-Cl) = N[C@H](Cc1ccc(Cl)cc1)C(=O)O; Phe(4-NH2) = Nc1ccc(C[C@H](N)C(=O)O)cc1; d2Nal = N[C@H](Cc1ccc2ccccc2c1)C(=O)O; Lys(iPr) = CC(C)NCCCC[C@H](N)C(=O)O; d3Pal = N[C@H](Cc1cccnc1)C(=O)O
Please go through the items and note down their inhibition.
Give the value in % but do not write % after it.

Record `C/C(=N\NC(=O)[C@@H]1C(=O)NC[C@H]1c1ccccc1)c1cccc(Br)c1` , field inhibition: -1.9

So for `c1ccc(NCc2ccc(CNc3ccccn3)cc2)nc1` , the logged inhibition turned out to be -3.14

Notebook: CC(=O)N[C@H](Cc1ccc2ccccc2c1)C(=O)N[C@H](Cc1ccc(Cl)cc1)C(=O)N[C@H](Cc1cccnc1)C(=O)N[C@@H](CO)C(=O)N[C@@H](Cc1ccc(NC(=O)[C@@H]2CC(=O)NC(=O)N2)cc1)C(=O)N[C@H](Cc1ccc(NC(N)=O)cc1)C(=O)N[C@@H](CC(C)C)C(=O)N[C@@H](CCCCNC(C)C)C(=O)N1CCC[C@H]1C(=O)N[C@H](C)C(N)=O (Ac-[d2Nal][dPhe(4-Cl)][d3Pal]S[Phe(4-NH2)](Dihydroorotyl(S))[dPhe(4-NHCONH2)]L[Lys(iPr)]P[dA]-NH2) , inhibition read as 22.6

The recorded inhibition for `c1ccc(Cn2c(N3CCNCC3)nc3ccccc32)cc1` is 2.45

Sample `Cc1ccc2nc(NCCN)c3ncc(C)n3c2c1` ; inhibition observed: 75.9

inhibition measured on `C/N=C(/NC#N)NCCSCc1csc(NC(=N)N)n1` = -5.07

Value of inhibition reported for the compound `c1cnc2cc3c(cc2n1)[C@@H]1CNC[C@H]3C1` is 9.33

Lab note: `CCCCC[C@H](O)/C=C/[C@H]1[C@H](O)CC(=O)[C@@H]1CCCCCCC(=O)O` gave inhibition of 6.53

Record `CC[C@H]1CN(c2nc(N)c(C(N)=O)nc2Cl)CCN1C1CCN(Cc2ccc(Cl)cc2)CC1` . Reported inhibition: -5.95

Documented inhibition of `Brc1c(NC2=NCCN2)ccc2nccnc12` : -8.07

Briefly, inhibition measured for `Cc1csc2c(N[C@@H](C)CN3CCN(S(=O)(=O)c4ccc(Cl)c(Cl)c4)CC3)ncnc12` : -1.59

// Cc1nccn1CC1CCc2c(c3ccccc3n2C)C1=O (stereo unspecified) : inhibition value = 13.8

Entry `Cc1cc(C)cc(-c2cnc3cc(Cl)c(-c4cccc(O)c4)cc3c2OCCCN)c1` , inhibition reported as 9.86

compound `Cc1ccc(-c2ccc(F)cc2COc2ccc(CCC(=O)O)cc2)cc1` , inhibition observed: 13.7

Kindly note the recorded inhibition for `CCN(c1ccccc1)c1cc(NC)[n+](C)c(C)n1` , which is 1.67

Measured inhibition of `Cc1cc(OCCCS(C)(=O)=O)cc(C)c1-c1cccc(COc2ccc3c(c2)OC[C@H]3CC(=O)O)c1` : 12.1

inhibition for `COc1cc(Nc2ccnc3ccc(Br)cc23)cc(OC)c1OC` is 34.4

According to the records, this compound `O=C(O)c1ccccc1S(=O)(=O)NCCCCN1C(=O)c2cccc3cccc(c23)C1=O` displays inhibition of 3.23

Note to self: inhibition recorded for `Cc1[nH]cnc1CN1CCc2c(c3ccccc3n2C)C1=O` was 3.5

GET /value?item= `O=C(O)CCc1ccc(NCc2cccc(Oc3ccccc3)c2)cc1` &field=inhibition returns 6.47

Record COc1cc(C(=O)N(CCC2CCCN2C)C/C(C)=C/c2ccccc2F)cc(OC)c1OC (stereo unspecified) , field inhibition: -9.88

# compound `Cc1nnsc1C(=O)Nc1ccc(-n2nc(C(F)(F)F)cc2C(F)(F)F)cc1` ; its inhibition = -1.63

Noted for `Cc1cccc(F)c1C(=O)Nc1cnc(-c2cc3c(cc2Cl)OC(F)(F)O3)cn1` : its inhibition reads 18.4

Recorded inhibition (compound `C[C@@H](NC(=O)Cc1ccc(C2CC2)cc1)c1ccc(OCC(F)(F)F)cn1` ): 10.8

For record `COc1ccccc1N1CCN(C[C@@H](C(=O)NC(C)(C)C)c2ccccc2)CC1` the listed inhibition is 15.3

Per the record, `CCCCc1nc2ccc(NC(=O)NC3CCCCC3)cc2n1Cc1ccc(-c2ccccc2C(=O)O)cc1` has inhibition of 24

The reported value for `CC(C)Oc1ccc(Cc2ccc(NC3=NCCN3)cc2)cc1` in terms of inhibition is -3.29

Form: compound = `O=c1cc(-c2cc(F)c(Cl)nc2Cl)[nH]c2c(-c3ccccc3)c(C(F)(F)F)nn12` ; inhibition = 43.4

Record `C[C@H](CCC(=O)O)[C@H]1CC[C@H]2[C@@H]3CC[C@@H]4C[C@H](O)CC[C@]4(C)[C@H]3CC[C@]12C` . Reported inhibition: 15.2

# inhibition (compound: `O=C(Nc1cc(C(F)(F)F)cc(C(F)(F)F)c1)c1cc(Cl)ccc1O` ) is 9.82

Item: `COc1cc(OC2CCN(C(C)=O)CC2)ccc1C(=O)N1CCC(N2C(=O)OCc3ccccc32)CC1` | inhibition: -3.3

# compound `CC(C)C[C@H](NC(=O)N1CCCCCC1)C(=O)N[C@H](Cc1cn(C)c2ccccc12)C(=O)N[C@H](Cc1ccccn1)C(=O)O` ; its inhibition = -0.244

inhibition reading for `C[C@H]1CN(C[C@H](Cc2ccccc2)C(=O)NCC(=O)O)CC[C@@]1(C)c1cccc(O)c1` : 22.9

The value of inhibition measured for the compound `NCCCCN(Cc1nc2ccccc2[nH]1)[C@H]1CCCc2cccnc21` turned out to be -6.17

Query `O=C(O)[C@H]1O[C@H](OP(=O)(O)OP(=O)(O)OC[C@H]2O[C@@H](n3ccc(=O)[nH]c3=O)[C@H](O)[C@@H]2O)[C@H](O)[C@@H](O)[C@@H]1O` yields inhibition of 24.7

get_value(item= CC(C1CC2CCC1C2)n1c(S)nnc1-c1ccco1 (stereo unspecified) , readout=inhibition) returns 19.5
